Molecular target: Alcohol dehydrogenase (Equus caballus, UniProt P00327+P00328)
Experiment: Inhibition of horse liver alcohol dehydrogenase using ethanol as substrate assessed as dissociation constant by spectrophotometric titration in presence of 1 mM NAD+
reported_endpoint: Kd (µM)
Answers are plain numbers, in µM.

compound=ClCc1cn[nH]c1 value_measured=2.7
compound=O=C(O)c1cc[nH]n1 value_measured=6500
compound=OCCc1cc[nH]n1 value_measured=170
compound=OCCc1cn[nH]c1 value_measured=0.77
compound=ClCCCc1cc[nH]n1 value_measured=40
compound=CC(=O)c1cc[nH]n1 value_measured=5100

Respectfully, I request Kd for each entry included below.
1. c1cn[nH]c1 [PYRAZOLE]
2. Cc1cn[nH]c1 [FOMEPIZOLE]
3. Cc1cc[nH]n1
4. OCc1cn[nH]c1
5. OCc1cc[nH]n1

[0.2, 0.013, 125, 3.6, 150]

====

Molecular target: Alcohol dehydrogenase (Equus caballus, UniProt P00327+P00328)
Test: Inhibition of horse liver alcohol dehydrogenase using ethanol as substrate assessed as dissociation constant by spectrophotometric titration in presence of 1 mM NAD+
I'd be grateful if you could share measured Kd for these entries.
Numbers only, in µM.

Here are 2 compounds together with their reported answers.
smiles_data=ClCCc1cc[nH]n1 reported_endpoint=Kd units_label=µM value_measured=200
smiles_data=OCCCc1cn[nH]c1 reported_endpoint=Kd units_label=µM value_measured=0.56

Give Kd for each listed item.
1. ClCCCc1cn[nH]c1
2. OCCCc1cc[nH]n1

1. 0.02
2. 60
